Reference source: patent US8999983B2

assayOverview: Pharmacokinetics of salt forms, single oral dose
Type: in vivo, CD-1 mice
conditions: male, CD-1, mouse, plasma; PO 10.0 mg/kg
measureName: MRT

# input GET /values?readout=MRT&item= COCCOc1cnc(Sc2cc(C)c(-c3csc(NC(=O)c4ccncc4)n3)c(C)c2)cn1.Cl [110095-HCl-1007]
# output 4.11 h

###

assayOverview: Pharmacokinetics of salt forms, single IV dose
Type: in vivo, CD-1 mice
conditions: male, CD-1, mouse, plasma; IV 1 mg/kg, 24 h; read-out: mean concentration of 110095 in mouse plasma
Experimental: Pharmacokinetics of Hec1 Inhibitor Salts: Pharmacokinetic comparison of different salt forms (HCl, tosylate, mesylate salt) was studied for the compounds as shown in Table 3 below: […] The plasma concentrations of 110095 (compound 27 of Table 1, the free base of all three test articles) were determined by LC MS/MS in the positive MRM mode; all doses were normalized to the freebase (110095) concentration. […]
measureName: concentration at 24 h (ng/mL)
Response body: numeric value in ng/mL, unit text excluded.

# input GET /values?readout=concentration at 24 h&item= COCCOc1cnc(Sc2cc(C)c(-c3csc(NC(=O)c4ccncc4)n3)c(C)c2)cn1.Cl [110095-HCl-1007]
# output 3.68
